Numbers sourced from patent US20140011734A1.

- Experimental system: T1, blood platelet receptor glycoprotein Ib-IX-V complex (GPIb) (human, UniProt P07359 17-652; P13224 26-206; P14770 17-177; P40197 17-560)
- T1 construct: whole, on cells; also called GPIb complex; GPIb receptor
- T1 sequence (P07359 17-652, chain 1 of 4): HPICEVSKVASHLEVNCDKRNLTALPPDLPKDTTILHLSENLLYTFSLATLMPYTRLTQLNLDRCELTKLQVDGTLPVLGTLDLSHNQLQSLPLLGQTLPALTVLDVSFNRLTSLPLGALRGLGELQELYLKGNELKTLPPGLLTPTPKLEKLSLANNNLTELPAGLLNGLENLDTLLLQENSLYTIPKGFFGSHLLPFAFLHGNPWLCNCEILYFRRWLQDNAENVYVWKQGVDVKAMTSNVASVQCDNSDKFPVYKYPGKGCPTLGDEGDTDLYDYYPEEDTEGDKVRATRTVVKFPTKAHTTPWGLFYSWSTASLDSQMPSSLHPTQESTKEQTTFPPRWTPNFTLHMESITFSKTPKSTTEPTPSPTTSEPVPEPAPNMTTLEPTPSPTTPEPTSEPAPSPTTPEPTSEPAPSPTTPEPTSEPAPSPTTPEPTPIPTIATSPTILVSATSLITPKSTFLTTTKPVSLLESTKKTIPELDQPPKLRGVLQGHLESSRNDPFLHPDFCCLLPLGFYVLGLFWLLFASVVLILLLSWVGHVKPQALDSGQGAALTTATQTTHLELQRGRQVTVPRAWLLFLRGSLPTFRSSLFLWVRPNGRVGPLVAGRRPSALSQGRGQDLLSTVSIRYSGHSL
- T1 sequence (P13224 26-206, chain 2 of 4): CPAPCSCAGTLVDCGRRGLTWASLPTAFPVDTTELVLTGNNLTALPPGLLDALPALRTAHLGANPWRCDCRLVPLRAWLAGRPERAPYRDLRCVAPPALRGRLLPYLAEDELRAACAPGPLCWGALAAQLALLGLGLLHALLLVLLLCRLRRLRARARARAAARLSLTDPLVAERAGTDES
- T1 sequence (P14770 17-177, chain 3 of 4): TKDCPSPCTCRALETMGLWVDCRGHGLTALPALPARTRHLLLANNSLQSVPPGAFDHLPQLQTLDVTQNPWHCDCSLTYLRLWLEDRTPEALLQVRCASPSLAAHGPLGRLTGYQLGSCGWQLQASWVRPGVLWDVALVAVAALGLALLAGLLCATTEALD
- T1 sequence (P40197 17-560, chain 4 of 4): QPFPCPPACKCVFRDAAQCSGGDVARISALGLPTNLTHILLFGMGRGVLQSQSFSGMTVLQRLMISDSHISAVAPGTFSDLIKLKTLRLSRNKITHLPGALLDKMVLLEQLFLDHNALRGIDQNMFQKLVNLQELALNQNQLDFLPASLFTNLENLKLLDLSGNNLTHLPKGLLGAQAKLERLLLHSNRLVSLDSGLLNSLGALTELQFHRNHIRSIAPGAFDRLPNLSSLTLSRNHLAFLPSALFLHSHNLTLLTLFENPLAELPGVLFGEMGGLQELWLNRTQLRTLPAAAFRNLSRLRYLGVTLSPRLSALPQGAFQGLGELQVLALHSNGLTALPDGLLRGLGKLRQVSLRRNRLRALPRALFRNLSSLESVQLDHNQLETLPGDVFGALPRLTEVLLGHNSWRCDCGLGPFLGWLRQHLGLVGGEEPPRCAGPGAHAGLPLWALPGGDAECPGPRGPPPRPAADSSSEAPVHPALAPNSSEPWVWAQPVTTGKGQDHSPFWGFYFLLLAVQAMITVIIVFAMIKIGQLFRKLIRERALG
- Procedure summary: inhibition of static adhesion of human platelets to coated vWF-A1; grade C = IC50 lower than 1 µM
pIC50: −log10 of the molar value. Non-standard residues stand in square brackets, D forms with d. Cha = N[C@@H](CC1CCCCC1)C(=O)O; Dab = NCC[C@H](N)C(=O)O; Ahp = NCCCCCCC(=O)O
Consider the following binders; for each one, report its pIC50.

>  <Binder>
cyclo(LHNL[Ahp]TER[Cha]A) (SMILES CC(C)C[C@@H]1NC(=O)[C@H](C)NC(=O)[C@H](CC2CCCCC2)NC(=O)[C@H](CCCNC(=N)N)NC(=O)[C@H](CCC(=O)O)NC(=O)[C@H]([C@@H](C)O)NC(=O)CCCCCCNC(=O)[C@H](CC(C)C)NC(=O)[C@H](CC(N)=O)NC(=O)[C@H](Cc2c[nH]cn2)NC1=O) [Cyclo[Leu-His-Asn-Leu-NH-(CH2)6-CO-Thr-Glu-Arg-Cha-Ala]]

>  <Endpoint result>
> 6.00

$$$$
>  <Binder>
cyclo(LHNL[Ahp]TERAA) (SMILES CC(C)C[C@@H]1NC(=O)[C@H](C)NC(=O)[C@H](C)NC(=O)[C@H](CCCNC(=N)N)NC(=O)[C@H](CCC(=O)O)NC(=O)[C@H]([C@@H](C)O)NC(=O)CCCCCCNC(=O)[C@H](CC(C)C)NC(=O)[C@H](CC(N)=O)NC(=O)[C@H](Cc2c[nH]cn2)NC1=O) [Cyclo[Leu-His-Asn-Leu-NH-(CH2)6-CO-Thr-Glu-Arg-Ala-Ala]]

>  <Endpoint result>
> 6.00

$$$$

Then this binder:
Field pIC50 (entry cyclo(LHNL[Ahp][Dab]ERMA) (SMILES CSCC[C@@H]1NC(=O)[C@H](CCCNC(=N)N)NC(=O)[C@H](CCC(=O)O)NC(=O)[C@H](CCN)NC(=O)CCCCCCNC(=O)[C@H](CC(C)C)NC(=O)[C@H](CC(N)=O)NC(=O)[C@H](Cc2c[nH]cn2)NC(=O)[C@H](CC(C)C)NC(=O)[C@H](C)NC1=O) [Cyclo[Leu-His-Asn-Leu-NH-(CH2)6-CO-Dbu-Glu-Arg-Met-Ala]] ) reads > 6.00
